Reference for the values: ChEMBL document CHEMBL1649132

# test-name: Mean residence time in guinea pig at 40 mg/kg, administered via intratracheal insufflation by HPLC method
# Assay type: ADME, organism-based, Cavia porcellus
# Design: dose 40 mg/kg, route endotracheal
# condition-description: in vivo, inhaled or intranasal
measurement-label: MRT (h)
Answers are plain numbers, in h.

Return reported MRT; argument: O=[N+]([O-])c1cn2c(n1)OC[C@@H](OCc1ccc(OC(F)(F)F)cc1)C2 7.52

###

# test-name: Half life in guinea pig at 20 mg/kg, administered via intratracheal insufflation by HPLC method
# Assay type: ADME, organism-based, Cavia porcellus
# Design: dose 20 mg/kg, route endotracheal
# condition-description: in vivo, inhaled or intranasal
measurement-label: half-life (h)
Answers are plain numbers, in h.

Which measured half-life value corresponds to O=[N+]([O-])c1cn2c(n1)OC[C@@H](OCc1ccc(OC(F)(F)F)cc1)C2 ? 2.83

###

# test-name: AUC (0 to infinity) in guinea pig at 60 mg/kg, administered via intratracheal insufflation by HPLC method
# Assay type: ADME, organism-based, Cavia porcellus
# Set-up: time infinity, dose 60 mg/kg, route endotracheal
# condition-description: plasma, inhaled or intranasal
measurement-label: AUC(0-inf) (ng·h/mL)
Answers are plain numbers, in ng·h/mL.

Form field: reported AUC(0-inf) of O=[N+]([O-])c1cn2c(n1)OC[C@@H](OCc1ccc(OC(F)(F)F)cc1)C2 51000

###

# test-name: Cmax in guinea pig at 40 mg/kg, po by HPLC method
# Assay type: ADME, organism-based, Cavia porcellus
# Set-up: dose 40 mg/kg, route oral
# condition-description: in vivo
measurement-label: Cmax (ng/mL)
One number for each entry, in ng/mL.

Query (molecule): O=[N+]([O-])c1cn2c(n1)OC[C@@H](OCc1ccc(OC(F)(F)F)cc1)C2 ; field requested: Cmax 4140

###

# test-name: Elimination rate constant in guinea pig at 60 mg/kg, administered via intratracheal insufflation by HPLC method
# Type: ADME, organism-based, Cavia porcellus
# Design: dose 60 mg/kg, route endotracheal
# condition-description: in vivo, inhaled or intranasal
measurement-label: k el (s⁻¹)
Answers are plain numbers, in s⁻¹.

I am curious: what k el value has been reported for O=[N+]([O-])c1cn2c(n1)OC[C@@H](OCc1ccc(OC(F)(F)F)cc1)C2 ? 3.61e-05

###

# test-name: Tmax in guinea pig at 20 mg/kg, iv by HPLC method
# Type: ADME, organism-based, Cavia porcellus
# Set-up: dose 20 mg/kg, route intravenous
# condition-description: in vivo
measurement-label: Tmax
Report field: quantity (unit follows the number).

I would be grateful if you could share the reported Tmax for O=[N+]([O-])c1cn2c(n1)OC[C@@H](OCc1ccc(OC(F)(F)F)cc1)C2 [PRETOMANID] . 6.6 min

###

# test-name: Elimination rate constant in guinea pig at 20 mg/kg, administered via intratracheal insufflation by HPLC method
# Format: ADME, organism-based, Cavia porcellus
# Design: dose 20 mg/kg, route endotracheal
# condition-description: in vivo, inhaled or intranasal
measurement-label: k el (s⁻¹)
Numbers only, in s⁻¹.

Query: k el; subject: O=[N+]([O-])c1cn2c(n1)OC[C@@H](OCc1ccc(OC(F)(F)F)cc1)C2 6.67e-05

###

# test-name: Mean residence time in guinea pig at 40 mg/kg, po by HPLC method
# Type: ADME, organism-based, Cavia porcellus
# Parameters: dose 40 mg/kg, route oral
# condition-description: in vivo
measurement-label: MRT (h)
Numbers only, in h.

I would be grateful if you could share the reported MRT for O=[N+]([O-])c1cn2c(n1)OC[C@@H](OCc1ccc(OC(F)(F)F)cc1)C2 . 5.37

###

# test-name: Tmax in po dosed monkey
# Assay type: ADME, organism-based, Macaca mulatta
# condition-description: rhesus monkey, in vivo
measurement-label: Tmax (h)
One number for each entry, in h.

Using the record for O=[N+]([O-])c1cn2c(n1)OC[C@@H](OCc1ccc(OC(F)(F)F)cc1)C2 [PRETOMANID] , report its Tmax. 3.33

###

# test-name: Bioavailability in guinea pig at 60 mg/kg, administered via intratracheal insufflation by HPLC method
# Format: ADME, organism-based, Cavia porcellus
# condition-description: in vivo, inhaled or intranasal
measurement-label: bioavailability (%)
One number for each entry, in %.

If you can, please state the reported bioavailability value of O=[N+]([O-])c1cn2c(n1)OC[C@@H](OCc1ccc(OC(F)(F)F)cc1)C2 . 0.74

###

# test-name: Bioavailability in guinea pig at 20 mg/kg, administered via intratracheal insufflation by HPLC method
# Assay type: ADME, organism-based, Cavia porcellus
# condition-description: in vivo, inhaled or intranasal
measurement-label: bioavailability (%)
One number for each entry, in %.

I would be grateful if you could share the reported bioavailability for O=[N+]([O-])c1cn2c(n1)OC[C@@H](OCc1ccc(OC(F)(F)F)cc1)C2 [PRETOMANID] . 2.11
